These measurements were taken from patent US9108983B2.

target: Bcl-2 protein (histag-Bcl-2, UniProtKB P10415) (Homo sapiens (Human), UniProt P10415); assay: Inhibition of Bcl-2 by the fluorescence polarisation technique; type: binding; details: incubation for 2 hours, hydrochloride, read-out: IC50 (nM) Bcl-2 FP
Sequence (P10415 whole entry): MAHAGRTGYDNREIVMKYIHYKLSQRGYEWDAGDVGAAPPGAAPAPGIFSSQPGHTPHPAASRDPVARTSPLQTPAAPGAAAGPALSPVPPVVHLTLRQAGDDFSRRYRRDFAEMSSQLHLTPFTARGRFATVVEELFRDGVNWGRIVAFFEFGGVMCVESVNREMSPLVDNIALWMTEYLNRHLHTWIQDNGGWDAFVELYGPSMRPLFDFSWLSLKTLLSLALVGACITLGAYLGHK
Structures can show the parent of a compound that is named as a salt.
Readout Kind: IC50 (nM)
Write the answer as a number in nM, unit excluded.

q: If you can, please state the reported IC50 value of Cc1c(C(=O)N(c2ccc(O)cc2)c2cnc3c(c2)CCN3C)cc(-c2cc(Cl)ccc2C(=O)N2Cc3ccccc3C[C@H]2CN2CCOCC2)n1C [Example 445, hydrochloride] .
a: 2

====

target: Bcl-2 protein (histag-Bcl-2, UniProtKB P10415) (Homo sapiens (Human), UniProt P10415); assay: Inhibition of Bcl-2 by the fluorescence polarisation technique; assay type: binding; settings: incubation for 2 hours, read-out: IC50 (nM) Bcl-2 FP
Counter-ions that a name gives are not always drawn.
Criterion: IC50 strictly under 6 nM. Met: t. Not met: f.

Would you please look over these solved cases?
{"columns": ["Compound", "Group Label"],
 "data": [
  ["C[C@@H]1Cc2ccccc2CN1C(=O)c1cc2c(cc1-c1cc(C(=O)N(c3ccc(O)cc3)c3cnn(C)c3)c(CN3CCOCC3)n1C)OCO2 [Example 82]", "f"],
  ["Cc1c(C(=O)N(c2ccc(O)cc2)c2cnn(C3CC3)c2)cc(-c2cc(Cl)ccc2C(=O)N2Cc3ccccc3C[C@H]2CN2CCOCC2)n1C [Example 122]", "t"],
  ["Cc1c(C(=O)N(c2ccc(O)cc2)c2cnn(C3COC3)c2)cc(-c2cc(Cl)ccc2C(=O)N2Cc3ccccc3C[C@H]2CN2CCOCC2)n1C [Example 126]", "t"],
  ["COC(=O)c1ccnc(N(C(=O)c2cc(-c3cc(Cl)ccc3C(=O)N3Cc4ccccc4C[C@H]3CN3CCOCC3)n(C)c2C)c2ccc(O)cc2)c1 [Example 400, hydrochloride]", "f"],
  ["CN1CCN(C[C@@H]2Cc3ccccc3CN2C(=O)c2cc3c(cc2-c2cc(C(=O)N(c4ccc(O)cc4)c4ccc5c(ccn5C)c4)cn2C)OCO3)CC1 [Example 9, hydrochloride]", "f"]
]}

q: Is 6 nM strictly greater than the compound's reported IC50? compound: Cc1c(C(=O)N(c2ccc(O)cc2)c2cccc(F)c2)cc(-c2cc(Cl)ccc2C(=O)N2Cc3ccccc3C[C@H]2CN2CCOCC2)n1C [Example 34, hydrochloride]
a: f

q: Also Cc1c(N(C(=O)c2cc(-c3ccccc3C(=O)N3Cc4ccccc4C[C@H]3CN3CCOCC3)n(C)c2C)c2ccc(O)cc2)cc(C#N)n1C [Example 406, hydrochloride] , if possible.
a: t

q: Note, next up: Cc1c(C(=O)N(c2ccc(O)cc2)c2cnn(C)c2)cc(-c2cc(Cl)ccc2C(=O)N2Cc3ccccc3C[C@H]2CN2CCN3CCOC[C@@H]3C2)n1C [Example 115, dihydrochloride]
a: t

q: Same thing, different compound: Cc1c(N(C(=O)c2cc(-c3cc(Cl)ccc3C(=O)N3Cc4ccccc4C[C@H]3CN3CCOCC3)n(C)c2)c2ccc(O)cc2)cc(C#N)n1C [Example 415, hydrochloride]
a: t

q: Also Cc1c(C(=O)N(c2ccc(O)cc2)c2cccc(C#N)c2)cc(-c2cc(Cl)ccc2C(=O)N2Cc3ccccc3C[C@H]2CN2CCOCC2)n1C [Example 398, hydrochloride] ?
a: t

q: Another compound to look at: Cc1c(C(=O)N(c2ccc(O)cc2)c2cnn(C3COC3)c2)cc(-c2cc(F)ccc2C(=O)N2Cc3ccccc3C[C@H]2CN2CCOCC2)n1C [Example 423]
a: f

q: Now consider Cc1c(C(=O)N(c2ccc(O)cc2)c2cnn(C)c2)cc(-c2cc3c(cc2C(=O)N2Cc4ccccc4C[C@H]2C)OCO3)n1CCN [Example 30, hydrochloride] and answer again.
a: t

q: One more compound: CNCCn1c(-c2cc3c(cc2C(=O)N2Cc4ccccc4C[C@H]2C)OCO3)cc(C(=O)N(c2ccc(O)cc2)c2cnn(C)c2)c1C [Example 26, hydrochloride]
a: t

q: Repeat with Cn1cc(N(C(=O)c2cc(-c3cc4c(cc3C(=O)N3Cc5ccccc5C[C@H]3CN3CCOCC3)OCO4)n(C)c2C(F)(F)F)c2ccc(O)cc2)cn1 [Example 75, hydrochloride]
a: f

q: Now consider Cc1nn(C)cc1N(C(=O)c1cc(-c2cc(F)ccc2C(=O)N2Cc3ccccc3C[C@H]2CN2CCOCC2)n(C)c1C)c1ccc(O)cc1 [Example 452, hydrochloride] .
a: f

q: What would you report for Cc1c(C(=O)N(C)c2ccc(O)cc2)cc(-c2cc(CCNC(=O)COc3ccccc3)ccc2C(=O)N2Cc3ccccc3C[C@H]2C)n1C [Example 46] ?
a: f

q: What do you have for Cc1c(C(=O)N(c2ccc(O)cc2)c2cccc(C#N)n2)cc(-c2cc(Cl)ccc2C(=O)N2Cc3ccccc3C[C@H]2CN2CCOCC2)n1C [Example 109, hydrochloride] ?
a: f

q: Again, but for Cc1c(C(=O)N(c2ccc(O)cc2)c2ccc3c(c2)ncn3C)cc(-c2cc(Cl)ccc2C(=O)N2Cc3ccccc3C[C@H]2CN2CCOCC2)n1C [Example 72]
a: f

q: Repeat for the following compound: CN1CCN(C[C@@H]2Cc3ccccc3CN2C(=O)c2ccc(Cl)cc2-c2cc(C(=O)N(c3ccc(O)cc3)c3ccc4[nH]ccc4c3)cn2C)CC1 [Example 3]
a: f

q: Same lookup for Cc1c(C(=O)N(c2ccc(O)cc2)c2cc3ccn(C)c3cn2)cc(-c2cc3c(cc2C(=O)N2Cc4ccccc4C[C@H]2CN2CCOCC2)OCO3)n1C [Example 387, hydrochloride] , please.
a: f

====

biological target: Bcl-2 protein (histag-Bcl-2, UniProtKB P10415) (Homo sapiens (Human), UniProt P10415); assay: Inhibition of Bcl-2 by the fluorescence polarisation technique; assay type: binding; settings: incubation for 2 hours, read-out: IC50 (nM) Bcl-2 FP
Where a name gives a salt, the structure may show the parent alone.
Readout Kind: log10 IC50 (log10 of the value in nM)
# values: log10(IC50), units nM

{"columns": ["Molecule", "Assay System", "Observed Measurement"],
 "data": [
  ["Cc1c(C(=O)N(c2ccc(O)cc2)c2cnc3c(ccn3C)c2)cc(-c2cc(F)ccc2C(=O)N2Cc3ccccc3C[C@H]2CN2CCOCC2)n1C [Example 385, hydrochloride]", "Bcl-2 protein (histag-Bcl-2, UniProtKB P10415) (Homo sapiens (Human), UniProt P10415)", 0.76],
  ["Cc1c(C(=O)N(c2ccc(O)cc2)c2cnn(C)c2)cc(-c2cc3c(cc2C(=O)N2Cc4ccccc4C[C@H]2CN2CCOCC2)OCO3)n1CCF [Example 94, hydrochloride]", "Bcl-2 protein (histag-Bcl-2, UniProtKB P10415) (Homo sapiens (Human), UniProt P10415)", 0.93],
  ["Cc1c(C(=O)N(c2ccc(O)cc2)c2cnn(C)c2)cc(-c2cc3c(cc2C(=O)N2Cc4ccccc4C[C@H]2CN2CCOCC2)OCCO3)n1C [Example 21, hydrochloride]", "Bcl-2 protein (histag-Bcl-2, UniProtKB P10415) (Homo sapiens (Human), UniProt P10415)", 0.67],
  ["Cc1c(C(=O)N(c2ccc(O)cc2)c2ccc(F)c(C#N)c2)cc(-c2cc(F)ccc2C(=O)N2Cc3ccccc3C[C@H]2CN2CCOCC2)n1C [Example 437, hydrochloride]", "Bcl-2 protein (histag-Bcl-2, UniProtKB P10415) (Homo sapiens (Human), UniProt P10415)", 0.64],
  ["Cc1c(C(=O)N(c2ccccc2)c2cnc3c(ccn3C)c2)cc(-c2cc(Cl)ccc2C(=O)N2Cc3ccccc3C[C@H]2CN2CCOCC2)n1C [Example 390]", "Bcl-2 protein (histag-Bcl-2, UniProtKB P10415) (Homo sapiens (Human), UniProt P10415)", 1.33]
]}

Could you now look at the following molecule, please?
q: Sample Cc1c(C(=O)N(C)c2ccc(O)cc2)cc(-c2cc(CCNS(=O)(=O)CCc3ccc(F)cc3)ccc2C(=O)N2Cc3ccccc3C[C@H]2C)n1C [Example 55] — what was its log10 IC50?
a: 2.32

====

Overview of reported IC50 across a group of compounds:
biological target: Bcl-2 protein (histag-Bcl-2, UniProtKB P10415) (Homo sapiens (Human), UniProt P10415); test: Inhibition of Bcl-2 by the fluorescence polarisation technique; type: binding; conditions: incubation for 2 hours, read-out: IC50 (nM) Bcl-2 FP
Structures can show the parent of a compound that is named as a salt.
Field: numeric (nM). Do not append units.

Example results:
{"columns": ["Compound", "IC50, nM"],
 "data": [
  ["COc1cc(-c2cc(C(=O)N(c3ccc(O)cc3)c3cc(C#N)n(C)c3C)c(C)n2C)c(C(=O)N2Cc3ccccc3C[C@H]2CN2CCOCC2)cc1F [Example 429, hydrochloride]", 3.1],
  ["Cc1c(C(=O)N(c2ccc(O)cc2)c2cnc3c(ccn3C)c2)cc(-c2cc(CNC(=O)COc3ccccc3)ccc2C(=O)N2Cc3ccccc3C[C@H]2C)n1C", 18],
  ["Cc1c(C(=O)N(c2ccccc2)c2ccc(O)cc2)cc(-c2cc3c(cc2C(=O)N2Cc4ccccc4C[C@H]2CCN2CCOCC2)OCO3)n1CCO [Example 18, hydrochloride]", 3.9]
]}

q: Fill in: IC50 of Cc1c(C(=O)N(c2ccc(O)cc2)c2ccc(F)cc2)cc(-c2cc(Cl)ccc2C(=O)N2Cc3ccccc3C[C@H]2CN2CCOCC2)n1C [Example 33, hydrochloride] is ___
a: 10.9

q: Another compound: Cc1c(C(=O)N(c2ccc(O)cc2)c2cc(C#N)nn2C)cc(-c2cc(Cl)ccc2C(=O)N2Cc3ccccc3C[C@H]2CN2CCOCC2)n1C [Example 450, hydrochloride]
a: 2.7

q: // repeat for COc1ccc(C(=O)N2Cc3ccccc3C[C@H]2C)c(-c2cc(C(=O)N(c3ccncc3)c3ccc(O)cc3)c(C)n2C)c1 [Example 20, hydrochloride] and report
a: 4.9

q: Entry COc1ccc(C(=O)N2Cc3ccccc3C[C@H]2CN2CCOCC2)c(-c2cc(C(=O)N(c3ccc(O)c(F)c3)c3cnn(C)c3)c(C)n2C)c1 [Example 407, hydrochloride] please
a: 20.6

q: Follow-up entry: COCCN(C)CCn1c(-c2cc3c(cc2C(=O)N2Cc4ccccc4C[C@H]2C)OCO3)cc(C(=O)N(c2ccc(O)cc2)c2cnn(C)c2)c1C [Example 99, hydrochloride]
a: 6.4

q: What do we get for Cc1c(C(=O)N(c2ccc(O)cc2)c2cnn(C)c2)cc(-c2cc3c(cc2C(=O)N2Cc4ccccc4C[C@H]2CN2CCOCC2)OCO3)n1CC(F)F [Example 95, hydrochloride] ?
a: 7

q: // same read-out, input: Cc1c(C(=O)N(c2ccc(O)cc2)c2cnn(C)c2)cc(-c2ccccc2C(=O)N2Cc3ccccc3C[C@H]2CN2CCOCC2)n1C [Example 422, hydrochloride]
a: 9.2
